# procedure details: Solubility at pH 3.4
# Type: physicochemical
# condition label: buffer
readout label: solubility

Quick check: solubility of CO/C(C)=C1/NC(=O)[C@H]([C@@H](C)O)NC(=O)c2csc(n2)-c2cc(O)c(-c3nc(C(=O)N[C@@H](C)C(=O)N(CCO)CCO)cs3)nc2-c2csc(n2)[C@@H]2COC(=O)c3c4c5c(cccc5n3O)COC(=O)[C@@H](O[C@H]3C[C@](C)(O)[C@H](N(C)C)[C@H](C)O3)[C@@H](OC4)[C@H](NC(=O)c3csc1n3)c1nc(cs1)C(=O)N2 ?
> 1.2 mg/mL

* * *

# Tested on: Streptococcus pneumoniae
# procedure details: Antibacterial activity against penicillin resistant Streptococcus pneumoniae A28272
# Assay type: functional
Binary label based on MIC with cut-off 0.007 µg/mL: below gives true, not below gives false.

Solved entries (count: 3):
CO/C(C)=C1/NC(=O)[C@H]([C@@H](C)O)NC(=O)c2csc(n2)-c2cc(O)c(-c3nc(C(=O)N[C@@H](C)C(=O)N4CCC[C@H]4CO)cs3)nc2-c2csc(n2)[C@@H]2COC(=O)c3c4c5c(cccc5n3O)COC(=O)[C@@H](O[C@H]3C[C@](C)(O)[C@H](N(C)C)[C@H](C)O3)[C@@H](OC4)[C@H](NC(=O)c3csc1n3)c1nc(cs1)C(=O)N2 : false
CO/C(C)=C1/NC(=O)[C@H]([C@@H](C)O)NC(=O)c2csc(n2)-c2cc(O)c(-c3nc(C(=O)N[C@@H](C)C(=O)NCc4cc(O)cc(O)c4)cs3)nc2-c2csc(n2)[C@@H]2COC(=O)c3c4c5c(cccc5n3O)COC(=O)[C@@H](O[C@H]3C[C@](C)(O)[C@H](N(C)C)[C@H](C)O3)[C@@H](OC4)[C@H](NC(=O)c3csc1n3)c1nc(cs1)C(=O)N2 : false
CO/C(C)=C1/NC(=O)[C@H]([C@@H](C)O)NC(=O)c2csc(n2)-c2cc(O)c(-c3nc(C(=O)N[C@@H](C)C(=O)NCCOP(=O)([O-])[O-])cs3)nc2-c2csc(n2)[C@@H]2COC(=O)c3c4c5c(cccc5n3O)COC(=O)[C@@H](O[C@H]3C[C@](C)(O)[C@H](N(C)C)[C@H](C)O3)[C@@H](OC4)[C@H](NC(=O)c3csc1n3)c1nc(cs1)C(=O)N2.[Na+].[Na+] : false

Determine if CO/C(C)=C1/NC(=O)[C@H]([C@@H](C)O)NC(=O)c2csc(n2)-c2cc(O)c(-c3nc(C(=O)N[C@@H](C)C(=O)N(C)CCO)cs3)nc2-c2csc(n2)[C@@H]2COC(=O)c3c4c5c(cccc5n3O)COC(=O)[C@@H](O[C@H]3C[C@](C)(O)[C@H](N(C)C)[C@H](C)O3)[C@@H](OC4)[C@H](NC(=O)c3csc1n3)c1nc(cs1)C(=O)N2 shows MIC strictly lower than 0.007 µg/mL.
true
